# Assay target: T1, SgrAI wild type (UniProt Q9F6L0 1-339)
# T1 sequence: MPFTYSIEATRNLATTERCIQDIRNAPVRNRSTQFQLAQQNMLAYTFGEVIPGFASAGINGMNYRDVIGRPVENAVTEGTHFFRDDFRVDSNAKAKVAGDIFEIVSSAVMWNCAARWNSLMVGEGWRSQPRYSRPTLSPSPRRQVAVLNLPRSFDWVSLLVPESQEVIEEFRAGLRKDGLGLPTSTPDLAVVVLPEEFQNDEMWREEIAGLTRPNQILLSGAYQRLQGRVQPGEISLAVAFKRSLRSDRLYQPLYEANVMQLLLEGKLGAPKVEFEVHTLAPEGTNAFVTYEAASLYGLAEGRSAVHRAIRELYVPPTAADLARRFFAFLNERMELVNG
# Assay overview: fluorescence anisotropy; 10 mM Ca2+; 20 mM Tris-HOAc pH 8.0 (RT), 50 mM KOAc, 10 mM Ca(OAc)2 (or Mg(OAc)2), 1 mM DTT, 4 C for anisotropy and gel run; 10% glycerol for EMSA and R131A/R134A, none for wild type with 40-mers
# Run parameters: protein: recombinant; tags: none (untagged wild type; a C-terminal 6xHis version was also made); chain copies: 2; label: 5' Hex (Methods)
Reported endpoint: pKd
Reminder that pKd is minus the log10 of a molar concentration.

pKd for 40-NCTA (40-NC-TA) (dsDNA) DNA 1: GATGCGTGGGTCTTCACTCCGGAGGTCTGCTCAAAATGAG DNA 2: CTCATTTTGAGCAGACCTCCGGAGTGAAGACCCACGCATC is 9.30
